Entries and their measured inhibition at 33 µM follow.
- System: B16F10 mouse melanoma cells
- assay: B16F10 IFNγ-induced cellular growth inhibition assay
- Assay type: cell-based
- condition.info: Mus musculus, B16-F10; +0.5 ng/mL IFNγ; 33 μM compound; relative to DMSO control; read-out: % B16F10 growth inhibition (+0.5 ng/mL IFNγ) @ 33 μM

The following compounds have reported results that may help.
- compound: "CC(C)NC(=O)Oc1ccc2cc(O)c(N3CC(=O)NS3(=O)=O)c(F)c2c1 [Compound 103]"
  inhibition at 33 µM: "60 to 90%"
- compound: "[2H]C([2H])([2H])Oc1ccc2cc(O)c(N3CC(=O)NS3(=O)=O)c(F)c2c1 [Compound 118]"
  inhibition at 33 µM: "60 to 90%"
- compound: "CS(=O)(=O)N1CCC(Nc2ccc3cc(O)c(N4CC(=O)NS4(=O)=O)c(F)c3c2)C1 (stereo not shown) [Compound 126]"
  inhibition at 33 µM: "60 to 90%"

For the next question, use this compound.
### Prompt Hello, I am looking for reported inhibition at 33 µM with B16F10 mouse melanoma cells for CC(C)(C)CCNc1ccc2cc(O)c(N3CC(=O)NS3(=O)=O)c(F)c2c1 [Compound 116] . Could you help?
### Response > 90%
